Target protein (sequence): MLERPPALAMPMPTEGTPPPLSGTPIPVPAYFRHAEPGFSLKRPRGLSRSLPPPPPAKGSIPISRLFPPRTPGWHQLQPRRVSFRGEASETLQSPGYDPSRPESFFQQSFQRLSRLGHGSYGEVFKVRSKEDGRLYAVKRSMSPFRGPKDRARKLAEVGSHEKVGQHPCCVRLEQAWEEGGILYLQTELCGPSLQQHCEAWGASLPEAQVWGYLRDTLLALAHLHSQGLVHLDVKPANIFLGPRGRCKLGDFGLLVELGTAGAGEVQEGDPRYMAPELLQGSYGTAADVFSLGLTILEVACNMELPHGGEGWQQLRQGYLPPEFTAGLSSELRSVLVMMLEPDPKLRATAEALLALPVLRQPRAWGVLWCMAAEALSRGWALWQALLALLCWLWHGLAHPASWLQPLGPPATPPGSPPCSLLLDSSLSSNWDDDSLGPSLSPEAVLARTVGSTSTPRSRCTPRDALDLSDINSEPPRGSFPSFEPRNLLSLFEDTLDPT
pIC50: −log10 of the molar value.
Listed below: pIC50 values for each entry.

Prompt line: Suppose we examine the compound Cc1c(O)cccc1-c1c(N)c(C(N)=O)nc2c1c(C#N)nn2C (single isomer, unassigned) [Compound 59] ; what pIC50 value has been reported?
Response line: 5.30 to 6.00

----------
Measured IC50 by item
Target: PKMYT1 (Homo sapiens, UniProt Q99640)
Sequence (Q99640 1-499): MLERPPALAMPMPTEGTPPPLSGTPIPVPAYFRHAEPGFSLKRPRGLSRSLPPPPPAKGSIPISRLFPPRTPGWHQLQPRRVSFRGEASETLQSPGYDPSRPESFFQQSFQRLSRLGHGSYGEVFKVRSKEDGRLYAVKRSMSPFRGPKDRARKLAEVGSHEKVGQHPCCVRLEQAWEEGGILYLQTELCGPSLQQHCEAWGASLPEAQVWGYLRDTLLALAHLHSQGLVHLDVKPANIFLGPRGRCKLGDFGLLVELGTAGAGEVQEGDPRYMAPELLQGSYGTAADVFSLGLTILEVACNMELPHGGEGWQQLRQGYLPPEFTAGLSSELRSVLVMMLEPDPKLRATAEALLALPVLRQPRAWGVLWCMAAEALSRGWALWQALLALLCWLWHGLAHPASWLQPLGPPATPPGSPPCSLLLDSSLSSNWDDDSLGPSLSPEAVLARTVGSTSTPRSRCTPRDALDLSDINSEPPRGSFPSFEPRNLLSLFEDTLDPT

Here are 3 compounds together with their reported answers.
>>> print(df.to_string())
                                   compound  property        result
0  Cc1ccc(O)c(C)c1-c1c(N)c(C(N)=O)cc2c1ncn2C(F)(F)F (atropisomer, axis not shown; (P)) [Compound 70]      IC50       < 50 nM
1  Cc1ccc(O)c(C)c1-c1cc(C(N)=O)nc2c1c(Cl)cn2C (racemic) [Compound 30]      IC50  50 to 500 nM
2  Cc1ccc(O)c(C)c1-c1cc(C(N)=O)nc2c1c(C#N)cn2CC(F)(F)F (racemic) [Compound 23]      IC50       < 50 nM

# ---- query compound ----
Prompt line: Need IC50 of CNC(=O)c1cc(-c2c(C)ccc(O)c2C)c2[nH]ncc2c1 [Compound 38] , thanks.
Response line: ≥ 5000 nM
